Biological target: T1, recombinant human TL1A (human, UniProt O95150 71-251)
T1 construct: homotrimer; biotinylated for SPR capture; the ELISA paragraphs say only 'recombinant TL1A'; also called TNFSF15
T1 chain: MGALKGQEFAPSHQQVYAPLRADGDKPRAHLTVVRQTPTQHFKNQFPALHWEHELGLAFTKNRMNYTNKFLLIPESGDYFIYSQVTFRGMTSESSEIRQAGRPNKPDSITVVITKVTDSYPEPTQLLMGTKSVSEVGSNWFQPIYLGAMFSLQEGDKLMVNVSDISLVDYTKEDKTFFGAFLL
Experiment: competition ELISA vs bio-TL1A-0002
Quick reference for Bioactivity relative to TL1A-0002 among some binders
Enter your answer as a number in fold; do not include the unit.

TL1A-0062 (antibody, IgG1, V domains shown, IgG1/kappa variant of TL1A-0002) VH: QVQLVQSGAEVKKPGASVKVSCKASGYDYTYYGISWVRQAPGQGLEWMGWISTYNGNTHYARMLQGRVTMTTDTSTRTAYMELRSLRSDDTAVYYCARENYYGSGAYRGGMDVWGQGTTVTVSS VL: EIVLTQSPATLSLSPGERATLSCRASQSVSSYLAWYQQKPGQAPRLLIYDASNRATGIPARFSGSGSGTDFTLTISSLEPEDFAVYYCQQRSNWPWTFGQGTKVEIKR; 0.9
TL1A-0074 (antibody, IgG1, V domains shown, IgG1/kappa variant of TL1A-0002) VH: QVQLVQSGAEVKKPGASVKVSCKASGYDFTYYGISWVRQAPGQGLEWMGWISTYNTNTHYAPSLQGRVTMTTDTSTRTAYMELRSLRSDDTAVYYCARENYYGSGAYRGGMDVWGQGTTVTVSS VL: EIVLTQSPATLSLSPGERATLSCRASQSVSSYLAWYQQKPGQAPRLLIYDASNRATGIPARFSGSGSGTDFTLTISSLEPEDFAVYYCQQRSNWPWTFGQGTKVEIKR; 1

Here is another binder to look at.
Input: Which measured Bioactivity relative to TL1A-0002 value corresponds to TL1A-0076 (antibody, IgG1, V domains shown, IgG1/kappa variant of TL1A-0002) VH: QVQLVQSGAEVKKPGASVKVSCKASGYDFTYYGISWVRQAPGQGLEWMGWISTYNDNTHYAPSLQGRVTMTTDTSTRTAYMELRSLRSDDTAVYYCARENYYGSGAYRGGMDVWGQGTTVTVSS VL: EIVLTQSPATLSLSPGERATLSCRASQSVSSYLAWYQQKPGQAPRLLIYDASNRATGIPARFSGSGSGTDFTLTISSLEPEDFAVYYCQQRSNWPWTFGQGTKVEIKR ?
Output: 1.2
